- System: IICR (IP3 induced calcium release) in CHO cells
- procedure.details: Assay of IICR (IP3 induced calcium release)-inhibiting action
- Assay type: cell-based, Chinese hamster
- measurement.setup: Cricetulus griseus, CHO, test compound 30 μmol; CHO cells, 10 μM ATP; read-out: IICR level (percentage of inhibition)
observable: inhibition at 30 µM (%)

[[record]]
molecule = "O=C(CCNC(CO)Cc1ccccc1)c1ccc(Br)s1 (stereo not shown)"
observable = "inhibition at 30 µM"
val = 0

[[record]]
molecule = "O=C(CCNc1ccccc1O)c1ccc(Br)s1"
observable = "inhibition at 30 µM"
val = 10

[[record]]
molecule = "O=C(CCNCCS)c1ccc(Br)s1"
observable = "inhibition at 30 µM"
val = 50

[[record]]
molecule = "CN(CCC(=O)c1ccc(Br)s1)Cc1ccccc1"
observable = "inhibition at 30 µM"
val = 10

[[record]]
molecule = "CC(C)(C)N(CCO)CCC(=O)c1ccccn1"
observable = "inhibition at 30 µM"
val = 0

[[record]]
molecule = "NCCSSCCN(CCC(=O)c1ccc(Br)cc1)CCC(=O)c1ccc(Br)cc1"
observable = "inhibition at 30 µM"
val = 0

[[record]]
molecule = "O=C(CCN(CCO)CCO)c1ccccn1"
observable = "inhibition at 30 µM"
val = 0

[[record]]
molecule = "CC(C)(C)N(CCO)CCC(=O)c1cccs1"
observable = "inhibition at 30 µM"
val = 0

[[record]]
molecule = "O=C(CCN(CCO)c1ccccc1)c1ccc(Br)s1"
observable = "inhibition at 30 µM"
val = 0

[[record]]
molecule = "CN(CCC(=O)c1ccccn1)Cc1ccccc1"
observable = "inhibition at 30 µM"
val = 10

[[record]]
molecule = "O=C(CCN1CCN(c2ccco2)CC1)c1ccc(F)cc1"
observable = "inhibition at 30 µM"
val = 20

[[record]]
molecule = "CC(C)N(CCC(=O)c1ccc[nH]1)Cc1ccccc1"
observable = "inhibition at 30 µM"
val = 40

[[record]]
molecule = "Cc1ccc(C(=O)CCN(C)CCO)o1"
observable = "inhibition at 30 µM"
val = 20

[[record]]
molecule = "CN(CCC(=O)c1ccc(Cc2ccccc2)cc1)Cc1ccccc1"
observable = "inhibition at 30 µM"
val = 20

[[record]]
molecule = "NCCSSCCN(CCC(=O)c1ccc(I)cc1)CCC(=O)c1ccc(I)cc1"
observable = "inhibition at 30 µM"
val = 0

[[record]]
molecule = "Cc1ccc(C(=O)CCN(CCO)CCO)o1"
observable = "inhibition at 30 µM"
val = 30

[[record]]
molecule = "Cc1cc(C(=O)CCN(Cc2ccccc2)C(C)C)oc1C"
observable = "inhibition at 30 µM"
val = 30

[[record]]
molecule = "CC(C)N(CCO)CCC(=O)c1cccnc1"
observable = "inhibition at 30 µM"
val = 20

[[record]]
molecule = "CCCCN(CCO)CCC(=O)c1ccco1"
observable = "inhibition at 30 µM"
val = 70

[[record]]
molecule = "Cc1cc(C(=O)CCN(CCO)Cc2ccccc2)oc1C"
observable = "inhibition at 30 µM"
val = 0

[[record]]
molecule = "O=C(CCN1CCCCC1)c1ccccn1"
observable = "inhibition at 30 µM"
val = 10

[[record]]
molecule = "Cc1csc(C(=O)CCN(Cc2ccccc2)Cc2ccccc2)c1"
observable = "inhibition at 30 µM"
val = 20

[[record]]
molecule = "O=C(CCNCCc1ccccc1)c1ccco1"
observable = "inhibition at 30 µM"
val = 0

[[record]]
molecule = "CC(C)N(CCC(=O)c1ccsc1)Cc1ccccc1"
observable = "inhibition at 30 µM"
val = 30

[[record]]
molecule = "CC(C)N(CCC(=O)N1CCCCCC1=O)Cc1ccccc1"
observable = "inhibition at 30 µM"
val = 0

[[record]]
molecule = "CCN(CCC(=O)c1cccnc1)Cc1ccccc1"
observable = "inhibition at 30 µM"
val = 40

[[record]]
molecule = "NCC(O)CNCCC(=O)c1ccc(Br)s1 (stereo not shown)"
observable = "inhibition at 30 µM"
val = 70

[[record]]
molecule = "CN(CCO)CCC(=O)c1ccc2ccccc2c1"
observable = "inhibition at 30 µM"
val = 0

[[record]]
molecule = "O=C(CCN(CCO)CCO)c1ccc(Br)s1"
observable = "inhibition at 30 µM"
val = 40

[[record]]
molecule = "CC(C)N(CCO)CCC(=O)c1ccccc1"
observable = "inhibition at 30 µM"
val = 20

[[record]]
molecule = "CN(CCC(=O)c1ccc(Oc2ccccc2)cc1)Cc1ccccc1"
observable = "inhibition at 30 µM"
val = 70

[[record]]
molecule = "CC(C)N(CCC(=O)c1ccc(Cl)cc1)Cc1ccccc1"
observable = "inhibition at 30 µM"
val = 80

[[record]]
molecule = "CC(C)N(CCO)CCC(=O)c1ccc(Cl)cc1"
observable = "inhibition at 30 µM"
val = 30

[[record]]
molecule = "COc1ccc(C(=O)CCN(C)Cc2ccccc2)cc1"
observable = "inhibition at 30 µM"
val = 10

[[record]]
molecule = "O=C(CCNCc1ccccc1)c1ccc(Br)s1"
observable = "inhibition at 30 µM"
val = 10

[[record]]
molecule = "CN1CCN(CCC(=O)c2ccccc2)CC1"
observable = "inhibition at 30 µM"
val = 20

[[record]]
molecule = "O=C(CCNCCCCNCCCNCCC(=O)c1ccncc1)c1ccncc1"
observable = "inhibition at 30 µM"
val = 0

[[record]]
molecule = "CC(C)(C)N(CCC(=O)c1cccs1)Cc1ccccc1"
observable = "inhibition at 30 µM"
val = 95

[[record]]
molecule = "NCCSSCCN(CCC(=O)c1ccc(Cl)s1)CCC(=O)c1ccc(Cl)s1"
observable = "inhibition at 30 µM"
val = 0

[[record]]
molecule = "CC(C)N(CCO)CCC(=O)c1cc(Cl)sc1Cl"
observable = "inhibition at 30 µM"
val = 90


These measurements were taken from patent US8937091B2.
